tested on: PKAC-beta; construct: gene PRKACB; details: concentration: 1 μM, replicates: in singlicate; n = 1;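 also: KINOMEscan kinase panel screen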
# maps each entry to its %Inh
Answer in %, number only, no unit symbol.

Molecule | Study Target | Observation Type | Result Number
CNc1nccc(-c2ccc3c(N)n[nH]c3c2)n1 | PKAC-beta | %Inh | 4

IN: Suppose we examine the molecule Cn1cc(-c2ccc3c(c2)CCN3C(=O)Cc2cc(F)cc(C(F)(F)F)c2)c2c(N)ncnc21 ; what %Inh value has been reported?
OUT: 0

IN: # repeat for Nc1cccc(-c2ccc3c(N)n[nH]c3c2)c1
OUT: 4

IN: # repeat for Nc1ncc(-c2ccc3nccc(-c4ccncc4)c3c2)cc1S(=O)(=O)N1CCCCC1
OUT: 0

IN: # repeat for CSc1ccc(NC2=C(c3ccc(Cl)cc3)C(=O)NC2=O)cc1
OUT: 16

IN: # repeat for COc1cccc(CC(=O)N2CCc3cc(-c4cn(C)c5ncnc(N)c45)ccc32)c1
OUT: 12

---

tested on: JAK2(JH1domain-catalytic); settings: concentration: 1 μM, replicates: in singlicate; n = 1
Mark Criterion met for %Inh under 50%, Criterion not met if at or over.

Solved entries (count: 8):
Molecule | Cat
Cc1ccc(-c2ccc3occ(-c4ccc(S(C)=O)cc4)c3c2)nn1 (stereo not shown) | Criterion met
Cc1ccc(NC(=O)c2ccnc(N3CCCCC3)c2)cc1-c1ccc(C(=O)NCC2CC2)cc1 [GW775610] | Criterion not met
COc1cc(Nc2ccnc3cc(-c4ccncc4)ccc23)cc(OC)c1OC.Cl [GW494610] | Criterion met
Cl.N#CCc1ccc(Nc2nccc(Nc3ccc(Oc4ccccc4)cc3)n2)cc1 [GW639905] | Criterion not met
Cc1nn2c(=O)cc(N3CCO[C@H](C)C3)nc2n1Cc1cccc(Cl)c1Cl [GSK2373693] | Criterion met
CN(c1ccc(NC(=O)Nc2cccc(Cl)c2)cc1)c1ccnc(N)n1.Cl [GW830707] | Criterion met
Cn1cc(-c2cnc(N)c3c(-c4ccc5c(c4)CCN5C(=O)Cc4ccccc4)csc23)cn1 [GSK2593074] | Criterion met
Cc1cccc(Nc2nc(N[C@H]3CCCC[C@H]3N)ncc2C(N)=O)c1.Cl [GSK986310] | Criterion not met

IN: Strictly below 50% in %Inh? NCCC(NC(=O)c1cc(Br)c(-c2ccnc3[nH]ccc23)s1)c1ccccc1.O=C(O)C(F)(F)F.O=C(O)C(F)(F)F (stereo not shown) [GSK1307810]
OUT: Criterion not met

IN: # repeat for COc1cc(Nc2nccc(N3CCC(NC(=O)Nc4ccc5c(c4)OCO5)C3)n2)cc(OC)c1OC (stereo not shown) [GSK1379766]
OUT: Criterion not met

---

system: PDPK1; details: concentration: 1 μM, replicates: in singlicate; n = 1
Observation Type: %Inh (%)
Answer in %, number only, no unit symbol.

Answered cases to consult:
Compound | %Inh, %
CN1CCN(Cc2ccc(NC(=O)Nc3ccc(N(C)c4ccnc(Nc5ccc(CS(C)(=O)=O)cc5)n4)cc3)cc2)CC1.Cl [GW827654] | 10
Cc1ccc(NC(=O)c2ccnc(N3CCCCC3)c2)cc1-c1ccc(C(=O)NCC2CC2)cc1 [GW775610] | 0

IN: Suppose we examine the compound CSc1ccc(NC2=C(c3ccc(Cl)cc3)C(=O)NC2=O)cc1 [SB-317658] ; what %Inh value has been reported?
OUT: 17

---

test system: CLK3; settings: concentration: 1 μM, replicates: in singlicate; n = 1
# maps each entry to its %Inh
Answer in %, number only, no unit symbol.

Molecule | Observation Type | Result Number
COc1cccc(CC(=O)N2CCc3cc(-c4cn(C)c5ncnc(N)c45)ccc32)c1 [GSK2608899] | %Inh | 13
CC(C)(C)c1ccc(C(=O)Nc2cn3cc(-n4ccnc4)ccc3n2)cc1 | %Inh | 16
Cc1ccc(O)cc1Nc1ccnc2ccc(C(C)(C)C)cc12 [GW856805] | %Inh | 0
Cc1ccc(O)cc1Nc1ccnc2cc(-c3ccc(CN4CCCCC4)o3)ccc12 [GW557777] | %Inh | 0

IN: Suppose we examine the molecule Cc1cccc(Nc2nc(NCCN)ncc2C(N)=O)c1 [GSK1292139] ; what %Inh value has been reported?
OUT: 47

IN: # repeat for COC(=O)Nc1nc2ccc(Oc3ccc(CC(=O)Nc4cc(C(F)(F)F)ccc4F)cc3)cc2[nH]1 [GW680903]
OUT: 0

IN: # repeat for Nc1ncc(-c2ccc3nccc(-c4ccncc4)c3c2)cc1S(=O)(=O)N1CCCCC1 [GSK1693850]
OUT: 49

IN: # repeat for CCOc1nccc(-c2c(-c3ccc(F)cc3)ncn2C2CCNCC2)n1 [SB-249175]
OUT: 11

IN: # repeat for Cn1cc(-c2ccc3c(c2)CCN3C(=O)Cc2cc(F)cc(F)c2F)c2c(N)ncnc21 [GSK2634140]
OUT: 24

---

test system: BMX; details: concentration: 1 μM, replicates: in singlicate; n = 1
Observation Type: %Inh (%)
Answer in %, number only, no unit symbol.

Smiles Structure | Observation Type | Unit | Result Number
Cc1ccc(NC(=O)c2ccnc(N3CCCCC3)c2)cc1-c1ccc(C(=O)NCC2CC2)cc1 | %Inh | % | 0
Cc1cc(-c2c(-c3ccc(F)cc3)ncn2CCCN2CCOCC2)nc(N)n1 | %Inh | % | 5
O=C(Nc1n[nH]c2nc(-c3cccc(O)c3)ccc12)C1CC1 | %Inh | % | 4
CCNc1nccc(-c2c(-c3ccc(F)cc3)ncn2C2CCN(C)CC2)n1 | %Inh | % | 6
Cc1ccc(C)c(NC(=O)Nc2ccc(C)c(-c3ccc(C(=O)Nc4ccncc4)cc3)c2)c1 | %Inh | % | 0

IN: Suppose we examine the compound CC(C)c1nc(-c2cccc(NS(=O)(=O)c3c(F)cccc3F)c2)c(-c2ccnc(Nc3ccc(N4CCOCC4)nc3)n2)s1.Cl ; what %Inh value has been reported?
OUT: 94

IN: # repeat for Cc1ccc(Nc2ccnc(Nc3ccc(C)c(F)c3)n2)cc1O.Cl
OUT: 12

---

test system: TGFBR1; conditions: concentration: 1 μM, replicates: in singlicate; n = 1
Mark MET for %Inh under 6%, NOT MET if at or over.

Solved entries (count: 5):
Smiles Structure | Cat
CC(C)c1nc(-c2cccc(NS(=O)(=O)c3c(F)cccc3F)c2)c(-c2ccnc(Nc3ccc(N4CCOCC4)nc3)n2)s1.Cl | NOT MET
O=C(Nc1n[nH]c2cc(-c3cccs3)ccc12)C1CC1 | MET
Nc1ncnc2scc(-c3ccc(NC(=O)Cc4cc(F)ccc4F)cc3)c12.O=C(O)C(F)(F)F | MET
N#CC1(c2cccc(C(=O)Nc3cccc(Oc4ccc5nc(NC(=O)C6CC6)sc5n4)c3)c2)CC1 | MET
Cc1ccccc1CC(=O)N1CCc2cc(-c3cn(C)c4ncnc(N)c34)ccc21 | MET

Now examine the next entry.
IN: Strictly below 6% in %Inh? CN(c1ccc2c(c1)nc(NCc1ccccc1)n2C)c1ccnc(Nc2ccc(CS(C)(=O)=O)cc2)n1.Cl
OUT: NOT MET

---

tested on: PLK2; details: concentration: 1 μM, replicates: in singlicate; n = 1
# maps each entry to its %Inh
Answer in %, number only, no unit symbol.

Answered cases to consult:
Molecule | Unit | Result Number
Nc1cccc(-c2ccc3c(N)n[nH]c3c2)c1 [GSK2193613] | % | 0
CN1CCN(Cc2ccc(NC(=O)Nc3ccc(N(C)c4ccnc(Nc5ccc(CS(C)(=O)=O)cc5)n4)cc3)cc2)CC1.Cl [GW827654] | % | 12
Cl.O=C(Nc1ccc(Oc2ccc3[nH]c(NC(=O)c4ccco4)nc3c2)cc1)Nc1cc(C(F)(F)F)ccc1F [GW683134] | % | 0

Let us examine a further case.
IN: Suppose we examine the molecule Cc1ccccc1CC(=O)N1CCc2cc(-c3cn(C)c4ncnc(N)c34)ccc21 [GSK2603346] ; what %Inh value has been reported?
OUT: 2

---

system: PCTK3; construct: gene CDK18; details: concentration: 1 μM, replicates: in singlicate; n = 1
Mark YES for %Inh under 4%, NO if at or over.

Solved entries (count: 4):
Compound | Cat
Cn1cc(-c2cnc(N)c3c(-c4ccc5c(c4)CCN5C(=O)Cc4ccccc4)csc23)cn1 [GSK2593074] | NO
COc1cccc(C2=C(Nc3cccc(O)c3)C(=O)NC2=O)c1 [SB-390771] | NO
O=C(Nc1n[nH]c2cc(-c3cccs3)ccc12)C1CC1 [SB-731284] | NO
COC(=O)Nc1nc2ccc(Oc3ccc(NC(=O)Nc4cc(C(F)(F)F)ccc4F)cc3)cc2[nH]1.Cl [GW654607] | NO

IN: Strictly below 4% in %Inh? Cc1nn2c(=O)cc(N3CCO[C@H](C)C3)nc2n1Cc1cccc(Cl)c1Cl [GSK2373693]
OUT: NO

IN: # repeat for Cc1cccc(Nc2nc(N[C@H]3CCCC[C@H]3N)ncc2C(N)=O)c1.Cl [GSK986310]
OUT: NO

IN: # repeat for CN1CCN(Cc2ccc(NC(=O)Nc3ccc(N(C)c4ccnc(Nc5ccc(CS(C)(=O)=O)cc5)n4)cc3)cc2)CC1.Cl [GW827654]
OUT: YES

IN: # repeat for CN(c1ccc2c(c1)nc(NCc1ccccc1)n2C)c1ccnc(Nc2ccc(CS(C)(=O)=O)cc2)n1.Cl [GW811603]
OUT: YES

IN: # repeat for Cc1ccc(NC(=O)c2ccnc(N3CCCCC3)c2)cc1-c1ccc(C(=O)NCC2CC2)cc1 [GW775610]
OUT: YES

IN: # repeat for NCCC(NC(=O)c1cc(Br)c(-c2ccnc3[nH]ccc23)s1)c1ccccc1.O=C(O)C(F)(F)F.O=C(O)C(F)(F)F (stereo not drawn) [GSK1307810]
OUT: YES

IN: # repeat for CC(=O)Nc1cn2nc(Oc3cccc(NC(=O)c4cccc(C(F)(F)F)c4)c3)ccc2n1
OUT: NO
